Every entry's value here was drawn from patent US20240343771A1.

measurement.target: T1, human IL-12 (human, UniProt P29460 23-328; P29459 23-219)
T1 construct: also called Interleukin-12
T1 sequence 1: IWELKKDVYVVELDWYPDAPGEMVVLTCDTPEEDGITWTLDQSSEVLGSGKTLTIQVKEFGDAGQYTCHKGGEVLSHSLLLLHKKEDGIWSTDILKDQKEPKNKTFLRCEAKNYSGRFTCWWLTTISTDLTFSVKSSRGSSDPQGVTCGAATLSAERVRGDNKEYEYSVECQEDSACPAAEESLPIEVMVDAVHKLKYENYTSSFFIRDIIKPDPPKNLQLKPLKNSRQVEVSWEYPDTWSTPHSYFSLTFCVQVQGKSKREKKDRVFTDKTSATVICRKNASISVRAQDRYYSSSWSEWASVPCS
T1 sequence 2: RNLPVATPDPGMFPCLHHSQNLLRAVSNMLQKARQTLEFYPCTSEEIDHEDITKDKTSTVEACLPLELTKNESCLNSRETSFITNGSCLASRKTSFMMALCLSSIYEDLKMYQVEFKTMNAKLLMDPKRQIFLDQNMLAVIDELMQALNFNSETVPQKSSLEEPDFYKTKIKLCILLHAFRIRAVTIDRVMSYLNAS
protocol.text: SPR (Biacore T200), 37 C, pH 7.4; captured antibody, IL-12 analyte
pKd: −log10 of the molar value.
measurement.kind: pKd

* Anti-IL-12 antibody Ab1 variant Y91A VH/A43Q, Y49A VL (antibody, name in Kabat numbering, V domains shown, Ab1 with VH/VL interface substitutions; Kabat numbering) VH: QVQLVQSGAEVKKPGSSVKVSCKASGGTFSDYYLHWVRQAPGQGLEWMGWIDPENGDTEYAPKFQGRVTITADESTSTAYMELSSLRSEDTAVYACARNKELRYFDVWGQGTLVTVSS VL: DIVMTQSPLSLPVTPGEPASISCRASQSISINLHWYQQKPGQQPRLLIAFASQSISGVPSRFSGSGSGTDFTLTISSLQPEDFATYYCQQSNSFPLTFGQGTKVEIKR | 8.72
* Anti-IL-12 antibody Ab1 variant V37S VH/L46Q, Y49A VL (antibody, name in Kabat numbering, V domains shown, Ab1 with VH/VL interface substitutions; Kabat numbering) VH: QVQLVQSGAEVKKPGSSVKVSCKASGGTFSDYYLHWSRQAPGQGLEWMGWIDPENGDTEYAPKFQGRVTITADESTSTAYMELSSLRSEDTAVYYCARNKELRYFDVWGQGTLVTVSS VL: DIVMTQSPLSLPVTPGEPASISCRASQSISINLHWYQQKPGQAPRQLIAFASQSISGVPSRFSGSGSGTDFTLTISSLQPEDFATYYCQQSNSFPLTFGQGTKVEIKR | 8.51
* Anti-IL-12 antibody Ab1 variant F100aI VH/L46Q, Y49A, Y87M VL (antibody, name in Kabat numbering, V domains shown, Ab1 with VH/VL interface substitutions; Kabat numbering) VH: QVQLVQSGAEVKKPGSSVKVSCKASGGTFSDYYLHWVRQAPGQGLEWMGWIDPENGDTEYAPKFQGRVTITADESTSTAYMELSSLRSEDTAVYYCARNKELRYIDVWGQGTLVTVSS VL: DIVMTQSPLSLPVTPGEPASISCRASQSISINLHWYQQKPGQAPRQLIAFASQSISGVPSRFSGSGSGTDFTLTISSLQPEDFATYMCQQSNSFPLTFGQGTKVEIKR | 8.43
* Anti-IL-12 antibody Ab1 variant Y91M VH/A43Q, L46Q, Y49A VL (antibody, name in Kabat numbering, V domains shown, Ab1 with VH/VL interface substitutions; Kabat numbering) VH: QVQLVQSGAEVKKPGSSVKVSCKASGGTFSDYYLHWVRQAPGQGLEWMGWIDPENGDTEYAPKFQGRVTITADESTSTAYMELSSLRSEDTAVYMCARNKELRYFDVWGQGTLVTVSS VL: DIVMTQSPLSLPVTPGEPASISCRASQSISINLHWYQQKPGQQPRQLIAFASQSISGVPSRFSGSGSGTDFTLTISSLQPEDFATYYCQQSNSFPLTFGQGTKVEIKR | 8.36
* Anti-IL-12 antibody Ab1 variant Y91A VH/L46Q, Y49A VL (antibody, name in Kabat numbering, V domains shown, Ab1 with VH/VL interface substitutions; Kabat numbering) VH: QVQLVQSGAEVKKPGSSVKVSCKASGGTFSDYYLHWVRQAPGQGLEWMGWIDPENGDTEYAPKFQGRVTITADESTSTAYMELSSLRSEDTAVYACARNKELRYFDVWGQGTLVTVSS VL: DIVMTQSPLSLPVTPGEPASISCRASQSISINLHWYQQKPGQAPRQLIAFASQSISGVPSRFSGSGSGTDFTLTISSLQPEDFATYYCQQSNSFPLTFGQGTKVEIKR | 8.40
